System: SW-620 colon
Assay: NCI-60 one-dose screen, 48 h
Conditions: 10 µM unless noted
Compounds without any hit were thinned out: in the full panel of roughly 83,000, 20% have a hit. Calls of active or inactive are those of the source. Rule for the calls: active = growth percent below 10; inactive = the rest.
Possible outcomes: yes (1) for active, no (0) for inactive

molecule	assigned-category
Cc1onc(-c2ccccc2Cl)c1C(=O)N[C@@H]1C(=O)N2[C@@H]1SC(C)(C)[C@@H]2C(=O)O	no (0)
O=C(c1ccc(N2CCOCC2)cc1[N+](=O)[O-])N1CCOCC1	no (0)
O=C(c1ccccc1)C(CN1CCCCC1)c1ccccc1 (stereo not given)	yes (1)
O=C(Nc1nc2c(C(F)(F)F)cccc2s1)c1cc(Cl)ccc1O	no (0)
CCN(Cc1cccc(S(=O)(=O)[O-])c1)c1ccc(C(=C2C=CC(=[N+](CC)Cc3cccc(S(=O)(=O)O)c3)C=C2)c2ccccc2S(=O)(=O)O)cc1	no (0)
COc1ccc2c(c1)[n+](=O)c(/C=C/C(=O)c1cc(OC)c(OC)c(OC)c1)c(C)n2[O-]	no (0)
COc1cc(/C=C/c2cc(/C=C/c3ccc(O)c(OC)c3)n(C(=O)Cc3ccccc3)n2)ccc1O	yes (1)
COC(=O)C1CCN(S(=O)(=O)c2ccc(-c3ccccc3)cc2)CC1	no (0)
Cc1cc(C)cc(S(=O)(=O)n2ccc(-c3ccc4c(c3)CCC(C)(C)O4)n2)c1	no (0)
O=c1sc2ncnc3ncn1c32	no (0)
COc1ccc2nc(NC(=O)CN3CCn4c(nnc4C(F)(F)F)C3)sc2c1	no (0)
CCOc1cc(/C=C/C(=O)C(C(=O)/C=C/c2ccc(OC(=O)CNc3nc4ccccc4[nH]3)c(OCC)c2)C(=O)CNc2nc3ccccc3[nH]2)ccc1OC(=O)CNc1nc2ccccc2[nH]1	yes (1)
COc1cc(NC(=O)NCc2ccco2)ccc1-c1ccc(NC(=O)NCc2ccco2)cc1OC	no (0)
CC(=O)Nc1cc2c3c(cccc3c1)-c1ccccc1-2	no (0)
COc1ccc(C(=O)/C=C/c2ccc(C)cc2)cc1OC	no (0)
COc1cnc2c(c1)C(=O)c1c-2n(CCCN2CCOCC2)c(=O)c2cc(F)ccc12	yes (1)
COc1cnc2c(c1)C(=O)c1c-2n(CCCNC2=NCCS2)c(=O)c2cc(F)ccc12	yes (1)
OCCCc1n(Cc2ccc3ccccc3c2)c2ccccc2[n+]1Cc1ccc2ccccc2c1	no (0)
COc1ccc(-n2cnc3cc(C(=O)N4CCCCC4)ccc32)cc1	no (0)
CCCCc1n(Cc2ccc3ccccc3c2)cc[n+]1Cc1ccc2ccccc2c1	yes (1)

###

Listed here are compounds together with their documented growth.
System: UO-31 renal
Test: NCI-60 one-dose screen, 48 h (100 = growth as untreated, 0 = no growth, -100 = all killed)
Settings: 10 µM unless noted
The panel holds about 83,000 compounds, 20% with a hit somewhere; the sample as a whole holds those more often.
property-label: growth (%)

compound	property-label	val
CC1c2ccccc2-c2ccccc2N1C (stereo not given)	growth	70.7
Cc1ccccc1NC(=O)NC(CC(N)=O)c1ccc2c(c1)nc(-c1cccc(Oc3ccc(C(C)(C)C)cc3)c1)n2CCCN1CCCCC1C (stereo not given)	growth	88.6
COc1cnc2c(c1)C(=O)c1c-2n(CCCN2CCCC2)c(=O)c2cc(F)ccc12	growth	-96.2
COc1ccc(NS(=O)(=O)N2CCCCC2)cc1	growth	76.4
CCCn1c(N)c(C(=O)CNc2ccc(I)cc2)c(=O)[nH]c1=O	growth	30.1
